The following compounds are listed with their measured melting point values.

- compound: "Cc1cccc2c1nc(-c1c(F)cccc1F)n2Cc1c(Cl)cccc1Cl"
  melting point: "202 to 203 °C"
- compound: "Cc1cncn1CC#CCN1CCNC1=O"
  melting point: "163 to 167 °C"
- compound: "COC(=O)c1ccc(OC2=C3N=C4CCCCC4=C3C(Cc3cccc(F)c3)C=C2)o1 (stereo not given)"
  melting point: "86 to 88 °C"
- compound: "COC(=O)C(C)Oc1cc(C)ccc1COc1ccc(-n2c(=O)cc(C(F)(F)F)n(C)c2=O)cc1 (stereo not given)"
  melting point: "52 to 54 °C"
- compound: "Cc1ccccc1NC(=O)C1CCc2nc[nH]c2C1 (stereo not given)"
  melting point: "100 to 105 °C"
- compound: "CC1(C)C(Cl)C(=O)C1CC(Cl)(Cl)Cl (stereo not given)"
  melting point: "56 to 57 °C"
- compound: "CC(CSSc1nc2ccccc2s1)SSc1nc2ccccc2s1 (stereo not given)"
  melting point: "63 to 65 °C"
- compound: "CC(O)c1cc(C(C)O)cc(S(N)(=O)=O)c1 (stereo not given)"
  melting point: "175 to 177 °C"
- compound: "COc1ccc(CCCc2nnc(-c3ccc4occc4c3)o2)cc1"
  melting point: "116 to 117 °C"
- compound: "Nc1sc(-c2ccc(Cl)cc2)c(CN(C2CCCCC2)C2CCCCC2)c1C(=O)c1ccc(Cl)cc1"
  melting point: "200 to 204 °C"
- compound: "CCOC(=O)c1c(Cn2cnnc2)nc2cc(OC)c(OC)cc2c1-c1ccc(OC)c(OC(C)C)c1"
  melting point: "170 to 171 °C"
- compound: "Cc1[nH]c2ncnc(Nc3cccc(Br)c3)c2c1C"
  melting point: "243 to 244 °C"
- compound: "CC(=O)NC(=CC(=O)[C@H](Cc1ccccc1)N(Cc1ccccc1)Cc1ccccc1)Cc1ccccc1"
  melting point: "95 to 96 °C"
- compound: "O=C1C=CC(O)(c2nccs2)C=C1"
  melting point: "138 to 139 °C"
- compound: "CC(C)(C)CC(C)(C)c1ccc(O)c(-n2nc3ccccc3n2)c1"
  melting point: "101 to 103 °C"
- compound: "CC(C)(C)OC(=O)CCOCCCc1ccnc(-c2nc(=O)c3ccccc3s2)c1"
  melting point: "81.1 to 82.2 °C"
- compound: "CC(C(N)=O)n1nc(-c2cc(C(C)(C)C)c(O)c(C(C)(C)C)c2)c2cccnc21 (stereo not given)"
  melting point: "192 to 194 °C"
- compound: "N#CNC(=S)Nc1ccc(F)cc1"
  melting point: "> 270 °C"
- compound: "COc1ccc(N(CC(=O)OC(C)(C)C)C(=O)CNC(=O)Nc2cccc(C)c2)cc1"
  melting point: "158 °C"
- compound: "Cc1cc(-c2nnn(C)n2)cc(C)c1OCCCC(O)c1nccn1C (stereo not given)"
  melting point: "151 to 154 °C"
- compound: "CC(=O)NC1CCc2[nH]c3c(F)cc(F)cc3c2C1 (stereo not given)"
  melting point: "179 to 183 °C"
- compound: "CC(CCCl)C(=O)Nc1cc(C(C)(C)C)ns1 (stereo not given)"
  melting point: "144 to 146 °C"
- compound: "CC(=O)c1c(N(C)C)c(-c2ccccc2)n(Cc2ccc(Cl)cc2)c1C"
  melting point: "118 to 119 °C"
- compound: "CCCCCOC(=O)C1=C(C)NC(C)=C(C(=O)NC(C)C)C1c1ccccc1[N+](=O)[O-] (stereo not given)"
  melting point: "186 to 189 °C"
- compound: "CCSc1nnc(S)n1N"
  melting point: "172 °C"

The measured values listed here are drawn from a melting point compilation (Tetko et al.; mined from patent text by program, amines drawn as free bases though some values may be those of a salt).
